Provenance of the data: patent US9149038B2

System: Key Broadleaf Weed and Crop Species
Assay: Post-Emergent Test II: postemergent herbicidal activity, visual rating after 14 d (Table 7)
Type: in vivo
Conditions: post-emergence, 336 h, velvetleaf (Abutilon theophrasti), 70 g ai/ha, read-out: Visual Growth Reduction (%) 14 Days After Application ABUTH
Kindly supply the reported pest or weed control at 70 g/ha values for the records listed here.

Ask: GET /values?readout=pest or weed control at 70 g/ha&system=Key Broadleaf Weed and Crop Species&item= COC(=O)c1nc(-c2ccc3c(c2)OC(F)(F)O3)nc(N)c1Cl
Reply: 60 to 74%

Ask: GET /values?readout=pest or weed control at 70 g/ha&system=Key Broadleaf Weed and Crop Species&item= COC(=O)c1nc(-c2ccc3c(c2F)OC(F)(F)O3)nc(N)c1Cl
Reply: 0 to 29%

Ask: GET /values?readout=pest or weed control at 70 g/ha&system=Key Broadleaf Weed and Crop Species&item= COC(=O)c1nc(-c2ccc3c(c2)OC(F)(F)O3)c(F)c(N)c1OC
Reply: 0 to 29%

Ask: GET /values?readout=pest or weed control at 70 g/ha&system=Key Broadleaf Weed and Crop Species&item= COC(=O)c1nc(-c2ccc3c(c2)OC(F)(F)O3)c(Cl)c(N)c1Cl
Reply: 0 to 29%

Ask: GET /values?readout=pest or weed control at 70 g/ha&system=Key Broadleaf Weed and Crop Species&item= Nc1c(F)c(-c2cc(F)c3c(c2)OC(F)(F)O3)nc(C(=O)O)c1Cl
Reply: 0 to 29%

// each compound listed below needs its pest or weed control at 70 g/ha
1. Nc1c(F)c(-c2ccc3c(c2)OC(F)(F)O3)nc(C(=O)O)c1Cl
2. COC(=O)c1nc(-c2ccc3c(c2)OC(F)(F)O3)c(F)c(N)c1Cl
3. C=Cc1c(C(=O)OC)nc(-c2cc3c(cc2F)OCO3)c(F)c1N
4. Cc1c(-c2ccc3c(c2)OC(F)(F)O3)nc(C(=O)O)c(Cl)c1N

Reply:
1: 85 to 94%; 2: 95 to 100%; 3: 0 to 29%; 4: 0 to 29%

---

Tested on: Key Broadleaf Weed and Crop Species
Assay: Post-Emergent Test II: postemergent herbicidal activity, visual rating after 14 d (Table 7)
Format: in vivo
Details: post-emergence, 336 h, velvetleaf (Abutilon theophrasti), 140 g ai/ha, read-out: Visual Growth Reduction (%) 14 Days After Application ABUTH
value.type: pest or weed control at 140 g/ha

See these solved cases before continuing.
Ask: Dear colleague, I am looking for the recorded pest or weed control at 140 g/ha of the following compound: C=Cc1c(C(=O)O)nc(-c2cc3c(cc2F)OC(F)(F)O3)c(F)c1N [Compound 28]
Reply: 60 to 74%

Ask: Dear colleague, I am looking for the recorded pest or weed control at 140 g/ha of the following compound: Nc1c(F)c(-c2ccc(I)c3c2OC(F)(F)O3)nc(C(=O)O)c1Cl [Compound 81]
Reply: 75 to 84%

Ask: Dear colleague, I am looking for the recorded pest or weed control at 140 g/ha of the following compound: COC(=O)c1nc(-c2cc3c(cc2F)OC(F)(F)O3)c(F)c(N)c1OC [Compound 22]
Reply: 0 to 29%

Ask: Dear colleague, I am looking for the recorded pest or weed control at 140 g/ha of the following compound: Nc1c(Cl)c(C(=O)O)nc(-c2ccc3c(c2F)OC(F)(F)O3)c1Cl [Compound 5]
Reply: 0 to 29%

Ask: Dear colleague, I am looking for the recorded pest or weed control at 140 g/ha of the following compound: Nc1c(Cl)c(C(=O)O)nc(-c2cc3c(cc2F)OC(F)(F)O3)c1Cl [Compound 3]
Reply: 0 to 29%

Ask: Dear colleague, I am looking for the recorded pest or weed control at 140 g/ha of the following compound: COC(=O)c1nc(-c2ccc3c(c2)OC(F)(F)O3)nc(N)c1OC [Compound 62]
Reply: 85 to 94%

Ask: Dear colleague, I am looking for the recorded pest or weed control at 140 g/ha of the following compound: COC(=O)c1nc(-c2ccc3c(c2)OC(F)(F)O3)c(F)c(N)c1OC [Compound 24]
Reply: 0 to 29%

Ask: Dear colleague, I am looking for the recorded pest or weed control at 140 g/ha of the following compound: Cc1c(-c2ccc3c(c2)OC(F)(F)O3)nc(C(=O)O)c(Cl)c1N [Compound 52]
Reply: 0 to 29%

// each compound listed below needs its pest or weed control at 140 g/ha
1. Nc1nc(-c2ccc3c(c2F)OC(F)(F)O3)nc(C(=O)O)c1Cl [Compound 59]
2. COC(=O)c1nc(-c2cc3c(cc2F)OCO3)c(F)c(N)c1OC [Compound 26]

Reply:
1: 60 to 74%; 2: 0 to 29%

// each compound listed below needs its pest or weed control at 140 g/ha
1. COc1c(N)nc(-c2ccc3c(c2F)OC(F)(F)O3)nc1C(=O)O [Compound 66]
2. COC(=O)c1nc(-c2cc(F)c3c(c2)OC(F)(F)O3)c(F)c(N)c1Cl [Compound 17]
3. Nc1nc(-c2cc3c(cc2F)OC(F)(F)O3)nc(C(=O)O)c1Cl [Compound 57]
4. COC(=O)c1nc(-c2ccc3c(c2Cl)OC(F)(F)O3)cc(N)c1Cl [Compound 33]

Reply:
1. 85 to 94%
2. 0 to 29%
3. 0 to 29%
4. 75 to 84%

// each compound listed below needs its pest or weed control at 140 g/ha
1. Nc1c(F)c(-c2cccc3c2OC(F)(F)O3)nc(C(=O)O)c1Cl [Compound 74]
2. COC(=O)c1nc(-c2ccc3c(c2OC)OC(F)(F)O3)cc(N)c1Cl [Compound 47]
3. Nc1cc(-c2cc3c(cc2F)OC(F)(F)O3)nc(C(=O)O)c1Cl [Compound 42]
4. C=Cc1c(C(=O)OC)nc(-c2cc3c(cc2F)OCO3)c(F)c1N [Compound 31]

Reply:
1: 45 to 59%; 2: 60 to 74%; 3: 85 to 94%; 4: 45 to 59%

// each compound listed below needs its pest or weed control at 140 g/ha
1. COC(=O)c1nc(-c2ccc3c(c2)OC(F)(F)O3)c(Cl)c(N)c1Cl [Compound 1]
2. COC(=O)c1nc(-c2cc(OC)c3c(c2)OCO3)c(F)c(N)c1Cl [Compound 14]
3. Nc1c(F)c(-c2ccc(F)c3c2OC(F)(F)O3)nc(C(=O)O)c1Cl [Compound 77]

Reply:
1. 0 to 29%
2. 0 to 29%
3. 75 to 84%

---

Test system: Key Grass and Sedge Weeds as well as Grass Crops
Test: Post-Emergent Test II: postemergent herbicidal activity, visual rating after 14 d (Table 8)
Type: in vivo
Settings: post-emergence, 336 h, yellow nutsedge (Cyperus esculentus), 140 g ai/ha, read-out: Visual Growth Reduction (%) 14 Days After Application CYPES
Kindly supply the reported pest or weed control at 140 g/ha values for the records listed here.

See these solved cases before continuing.
Ask: GET /values?readout=pest or weed control at 140 g/ha&system=Key Grass and Sedge Weeds as well as Grass Crops&item= CC1(C)Oc2ccc(-c3nc(C(=O)O)c(Cl)c(N)c3F)cc2O1 [Compound 19]
Reply: 95 to 100%

Ask: GET /values?readout=pest or weed control at 140 g/ha&system=Key Grass and Sedge Weeds as well as Grass Crops&item= COC(=O)c1nc(-c2cc3c(cc2F)OC(F)(F)O3)c(F)c(N)c1OC [Compound 22]
Reply: 95 to 100%

Ask: GET /values?readout=pest or weed control at 140 g/ha&system=Key Grass and Sedge Weeds as well as Grass Crops&item= Nc1c(F)c(-c2ccc3c(c2)OC(F)(F)O3)nc(C(=O)O)c1Cl [Compound 7]
Reply: 95 to 100%

Ask: GET /values?readout=pest or weed control at 140 g/ha&system=Key Grass and Sedge Weeds as well as Grass Crops&item= Nc1c(F)c(-c2cccc3c2OC(F)(F)O3)nc(C(=O)O)c1Cl [Compound 74]
Reply: 0 to 29%

Ask: GET /values?readout=pest or weed control at 140 g/ha&system=Key Grass and Sedge Weeds as well as Grass Crops&item= COC(=O)c1nc(-c2cc3c(cc2F)OCO3)c(F)c(N)c1Cl [Compound 16]
Reply: 45 to 59%

// each compound listed below needs its pest or weed control at 140 g/ha
1. COC(=O)c1nc(-c2ccc3c(c2)OC(C)(C)O3)nc(N)c1OC [Compound 67]
2. Nc1cc(-c2cc(F)c3c(c2)OC(F)(F)O3)nc(C(=O)O)c1Cl [Compound 44]
3. COC(=O)c1nc(-c2ccc3c(c2)OC(C)(C)O3)nc(N)c1Cl [Compound 55]
4. COC(=O)c1nc(-c2cc3c(cc2F)OCO3)c(F)c(N)c1OC [Compound 26]

Reply:
["45 to 59%", "0 to 29%", "0 to 29%", "0 to 29%"]
